# ASSAY_COMMENT: in vitro
# TEST_SETTINGS: human, Caco-2
RESULT_TYPE: efflux ratio at 2 μM

CC[C@@]1(O)C(=O)OCc2c1cc1n(c2=O)Cc2cc3c(CN(C)C)c(O)ccc3nc2-1
4.6
C[C@H]1O[C@@H](O[C@H]2[C@@H](O)C[C@H](O[C@H]3[C@@H](O)C[C@H](O[C@H]4CC[C@@]5(C)[C@H](CC[C@@H]6[C@@H]5C[C@@H](O)[C@]5(C)[C@@H](C7=CC(=O)OC7)CC[C@]65O)C4)O[C@@H]3C)O[C@@H]2C)C[C@H](O)[C@@H]1O
5

====

# ASSAY_COMMENT: Hepatocyte stability
# Format: in vitro ADME
# TEST_SETTINGS: ICR/CD-1, hepatocytes (cryopreserved, suspension); mouse, 1 μM input, positive controls; read-out: Hepatocytes Clint, app
RESULT_TYPE: hepatocyte CLint at 1 μM (µL/min/1e6 cells)

CCOc1ccc(NC(C)=O)cc1 [Phenacetin, reference compound]
33

====

Item-by-item account of Vd
# ASSAY_COMMENT: Systemic clearance and brain distribution in WT and 3 × Tg-AD mice (8 months)
# Type: in vivo, mouse
# TEST_SETTINGS: B6129SF2/J (wild-type), mouse, plasma, iv; WT mice 8 months, 1 mg/kg i.v.; read-out: Vdss
RESULT_TYPE: Vd (L/kg)

COCCOCCn1c2ccccc2c2cc(/C=C/c3cc[n+](CCO)c4ccccc34)ccc21
2.1
COCCOCCn1c2ccccc2c2cc(/C=C/c3cc[n+](C)c4ccccc34)ccc21.[I-]
1.3

====

# ASSAY_COMMENT: Systemic clearance and pharmacokinetics after i.v. dose in C57BL/6 mice aging 2 months
# Format: in vivo, mouse
# TEST_SETTINGS: male, C57BL/6, mouse, plasma, iv; i.v. 1.0 mg/kg
Item-by-item account of half-life
RESULT_TYPE: half-life (h)

COCCOCCn1c2ccccc2c2cc(/C=C/c3cc[n+](C)c4ccccc34)ccc21.[I-] [SLM]
9.3
COCCOCCn1c2ccccc2c2cc(/C=C/c3cc[n+](CCO)c4ccccc34)ccc21 [SLOH]
5.8

====

# ASSAY_COMMENT: Systemic clearance and pharmacokinetics after i.v. dose in C57BL/6 mice aging 2 months
# Type: in vivo, mouse
# TEST_SETTINGS: male, C57BL/6, mouse, plasma, iv, 0.2 mg/kg, i.v. 0.2 mg/kg; read-out: Cl p (converted)
RESULT_TYPE: clearance

COCCOCCn1c2ccccc2c2cc(/C=C/c3cc[n+](C)c4ccccc34)ccc21.[I-]
14.8 mL/min/kg
COCCOCCn1c2ccccc2c2cc(/C=C/c3cc[n+](CCO)c4ccccc34)ccc21
15.5 mL/min/kg
